# test-system: UDP-glucose dehydrogenase (Homo sapiens, UniProt O60701)
# Sequence (O60701 whole entry): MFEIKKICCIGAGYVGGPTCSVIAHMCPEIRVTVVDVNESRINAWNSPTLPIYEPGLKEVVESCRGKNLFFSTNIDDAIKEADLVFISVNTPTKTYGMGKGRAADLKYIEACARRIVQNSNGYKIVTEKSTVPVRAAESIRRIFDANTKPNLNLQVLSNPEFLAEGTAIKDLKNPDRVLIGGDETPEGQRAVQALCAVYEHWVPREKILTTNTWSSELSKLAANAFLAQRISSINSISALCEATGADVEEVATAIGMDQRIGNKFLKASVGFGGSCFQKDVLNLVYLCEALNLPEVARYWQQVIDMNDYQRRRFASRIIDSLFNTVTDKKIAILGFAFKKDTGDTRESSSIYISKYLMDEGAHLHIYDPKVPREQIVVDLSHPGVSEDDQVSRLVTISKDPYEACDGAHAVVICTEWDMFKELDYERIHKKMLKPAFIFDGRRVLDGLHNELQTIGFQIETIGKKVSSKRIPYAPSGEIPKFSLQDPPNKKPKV
# method-summary: High throughput screening for inhibitors of UDP-glucose dehydrogenase (NADH fluorescence)
# Assay type: biochemical
# measurement-context: compound plates 20 μL/well of 25 μg/mL compound in 2.5% DMSO; relative to DMSO negative and UDP-xylose positive controls; higher POC = more inhibitory; read-out: POC (Percent of Controls)
Reported inhibition at 25 µg/mL (stock) values for a set of compounds
measured-property: inhibition at 25 µg/mL (stock) (%)

COc1ccc(NS(=O)(=O)c2cc(C(=O)Nc3ccc(C(=O)O)cc3)ccc2C)cc1 ... 61
CCc1c(C)sc(NC(=O)c2ccoc2C)c1C(N)=O ... 50
c1ccc(Nc2nc(-c3ccccc3)[n+](-c3ccccc3)s2)cc1 ... 52
CCSc1sc(SC#N)cc1SC#N ... 83
CCc1c(C)sc(NC(=O)c2cccc([N+](=O)[O-])c2C)c1C(N)=O ... 58
O=C(Nc1nc2c(s1)CCCC2)c1cccs1 ... 45
O=c1c(O)cc([C@H]2Oc3cc(O)cc(O)c3C[C@H]2O)cc2c([C@H]3Oc4cc(O)cc(O)c4C[C@H]3O)cc(O)c(O)c12 ... 83
COc1ccc2[nH]cc(CCNC(=O)c3ccc([N+](=O)[O-])cc3)c2c1 ... 61
COc1cc(-c2ccc(NC(=O)c3ccoc3C)c(OC)c2)ccc1NC(=O)c1ccoc1C ... 45
O=C1c2ccc(O)cc2O[C@H](c2cc(O)c(O)c(O)c2)[C@H]1O ... 96
O=C(O)COc1cccc(/C=C/[N+](=O)[O-])c1 ... 67
COc1cc(/C=C2\C(C)=C([N+](=O)[O-])CS2(=O)=O)ccc1O ... 65
COc1ccc(OC)c(N2C(=O)CC(Sc3nc4ccccc4s3)C2=O)c1 (stereo not drawn) ... 68
O=C(O)CCc1ccc(-c2cccs2)o1 [drawing 227] ... 87
CC(=O)Oc1cc(-c2coc3cc(OC(C)=O)c(OC(C)=O)c(OC(C)=O)c3c2=O)cc(OC(C)=O)c1OC(C)=O ... 98
NC(=O)c1c(NC(=O)C2CCCO2)sc2c1CCCCCC2 (stereo not drawn) ... 74
O=C1CC(Sc2nc3ccccc3s2)C(=O)N1c1ccccc1I (stereo not drawn) ... 58
COC(=O)Oc1c(Cl)cc2oc(=O)sc2c1[N+](=O)[O-] ... 73
O=C(Cc1ccccc1)c1ccc(O)c(O)c1O ... 46
CCC(C)(O)c1nnn(-c2nonc2N)c1C(C)(O)CC (stereo not drawn) [drawing 178] ... 101
O=c1c(-c2cc(O)c(O)c(O)c2)coc2cc(O)c(O)c(O)c12 ... 98
Nc1ncc(C2=C(Cl)C(O)C(Cl)=C(Cl)C2O)s1 (stereo not drawn) ... 71
Nc1ccc(C(=O)c2ccc(N)c(N)c2)cc1N ... 46
O=C(Nc1ccc([N+](=O)[O-])cc1)c1ccc(Br)o1 ... 62
c1ccc(CNc2nc(-c3ccccc3)[n+](-c3ccccc3)s2)cc1 ... 106
O=C(O[C@@H]1Cc2c(O)cc(O)cc2O[C@@H]1c1cc(O)c(=O)c2c(O)c(O)cc([C@H]3Oc4cc(O)cc(O)c4C[C@H]3O)c2c1)c1cc(O)c(O)c(O)c1 ... 76
O=C(Nc1ccc2nc(-c3ccco3)c(-c3ccco3)nc2c1)N1CCOCC1 ... 47
CN(C)c1ccc(NC(=O)C2C3C=CC(C3)C2C(=O)O)cc1 (stereo not drawn) ... 56
O=C(/C=C/c1ccco1)c1ccc(NC(=O)c2ccco2)cc1 ... 55
COc1ccc(-c2nnc(N)o2)cc1 ... 86
O=c1c(O)cccc2ccc(O)c(O)c12 ... 73
Nc1ccc(Cc2ccc(N)c(O)c2)cc1O ... 62
COc1ccc(-c2ccc(CCC(=O)O)[nH]2)cc1 ... 62
CC1(C)CC(=O)C2=C(C1)OC(N)=C(C#N)C21CCCC1 ... 126
Cc1cc(O)ccc1NC(=O)c1ccccc1 ... 46
COCc1cc(C(C)(C)C)c(O)c(O)c1C(C)(C)C ... 56
Nc1ccccc1S(=O)(=O)Nc1cccc2cccnc12 ... 72
O=C(Oc1cc(O)cc2c1C[C@@H](OC(=O)c1cc(O)c(O)c(O)c1)[C@@H](c1cc(O)c(O)c(O)c1)O2)c1cc(O)c(O)c(O)c1 ... 67
O=c1c(O)c(-c2cc(O)c(O)c(O)c2)oc2cc(O)cc(O)c12 ... 91
O=C(O[C@@H]1Cc2c(O)cc(O)cc2O[C@@H]1c1cc(O)c(=O)c2c(O)c(O)cc([C@H]3Oc4cc(O)cc(O)c4C[C@H]3OC(=O)c3cc(O)c(O)c(O)c3)c2c1)c1cc(O)c(O)c(O)c1 ... 59
Cc1ccc(-c2ccc(CCC(=O)O)o2)cc1 ... 82
O=C(O[C@@H]1Cc2c(O)cc(O)cc2O[C@@H]1c1cc(O)c(O)c(O)c1)c1cc(O)c(O)c(O)c1 ... 76

The reported numbers originate from patent US11478457B2.
